Values were extracted from patent EP0283349A1.

- study-target: élastase pancréatique porcine (Sus scrofa)
- Sequence (P00772 27-266): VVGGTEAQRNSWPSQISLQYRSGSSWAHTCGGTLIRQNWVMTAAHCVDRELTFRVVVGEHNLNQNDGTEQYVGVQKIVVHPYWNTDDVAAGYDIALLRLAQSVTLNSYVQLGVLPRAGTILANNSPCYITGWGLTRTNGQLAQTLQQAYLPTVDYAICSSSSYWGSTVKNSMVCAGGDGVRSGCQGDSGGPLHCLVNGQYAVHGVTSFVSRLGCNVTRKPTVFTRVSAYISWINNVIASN
- assay-method-text: Elastase inhibition (method of SHINOGI et al., substrate Boc-Ala-ONp)
- Format: biochemical
- assay-context: mass of inhibitor giving 50 % inhibition after 30 minutes; referred to the dry plant drug for plant extracts, real mass for defined principles
measure: I 50 Elas-tase (µg)

{"columns": ["compound", "study-target", "measure", "unit-descriptor", "value"],
 "data": [
  ["O=c1c(O)c(-c2ccc(O)cc2O)oc2cc(O)cc(O)c12", "élastase pancréatique porcine (Sus scrofa)", "I 50 Elas-tase", "µg", 60],
  ["C[C@@H]1O[C@@H](OC[C@H]2O[C@@H](Oc3c(-c4ccc(O)c(O)c4)oc4cc(O)cc(O)c4c3=O)[C@H](O)[C@@H](O)[C@@H]2O)[C@H](O)[C@H](O)[C@H]1O [Rutoside]", "élastase pancréatique porcine (Sus scrofa)", "I 50 Elas-tase", "µg", 150],
  ["O=c1c(O[C@@H]2O[C@H](CO)[C@H](O)[C@H](O)[C@H]2O)c(-c2ccc(O)c(O)c2)oc2cc(O)cc(O)c12 [Hypéroside]", "élastase pancréatique porcine (Sus scrofa)", "I 50 Elas-tase", "µg", 275],
  ["O=C(O)c1cc(O)c(O)c(O)c1 [Acide gallique]", "élastase pancréatique porcine (Sus scrofa)", "I 50 Elas-tase", "µg", 100],
  ["O=c1c(O)c(-c2ccc(O[C@@H]3O[C@H](CO)[C@@H](O)[C@H](O)[C@H]3O)c(O)c2)oc2cc(O)cc(O)c12 [Quercétine 4'-Glucoside]", "élastase pancréatique porcine (Sus scrofa)", "I 50 Elas-tase", "µg", 250]
]}
